Tested on: MS2 coat protein
Assay: apparent KD of MS2 coat protein, switch OFF state (with FMN for OFF switches, without FMN for ON switches); designed switch direction (-1 OFF switch, 1 ON switch): -1; higher = weaker reporter binding
Cond: FMN input: 0 or 200 uM; Eterna round: R93 (includes R88 designs)
Quantity measured: apparent KD of MS2 coat protein (nM)
// note: answer is a bare numeric in nM

Record lookup: for MS2 coat protein, what apparent KD of MS2 coat protein belongs to GCUGUCCUAGGAUAUACAUGAGGAUCACCCAUGUGAGAGAAAAAAGUGAGAAAGAAAAGUAGAAGGAGGGUAGG [salish99-ex3-104] ? 44.4

Form entry - test system: MS2 coat protein; read-out: apparent KD of MS2 coat protein; sequence: GUGUACAGAGGAUAUACAUAAGCAUGGAAACAUGCAACUUCACAUGAGGAUCACCCAUGUAGAAGGCUGUACAC [Ex2: 729] 13.7

Hi! What's the reported apparent KD of MS2 coat protein for GCUGUGCUAGGAUAUACAUGAGGAUCACCCAUGUGAGAGAAAAAAGUGAGAAAGAAAAGUAGAAGGAGCGUAGG [salish99-ex3-100] on MS2 coat protein? 59.2

Attribution: the supplement of paper PMC9170038
